- Target System: Aβ42 (Homo sapiens)
- Procedure Details: Th-T (thioflavin-T) assay of Aβ42 aggregation
- Type: biochemical
- Cond: compound at 50; reading M53 of time course
Measured Th-T fluorescence, mean of three wells by item

Compound	Th-T fluorescence, mean of three wells
C=C1CCC2C(C)(CCC=C(C)C)C(O)CCC2(C)C1Cc1c(OC)oc(C)c(C(=O)OC)c1=O (centres unmarked)	4.822
C=C1CC[C@@H]2[C@](C)(CC[C@H]3O[C@H](C=C(C)C)C[C@@]23C)[C@@H]1Cc1c(OC)oc(CO)c(C(=O)OC)c1=O	0.2185
C=C1CC[C@@H]2[C@](C)(CC[C@H]3O[C@H](C=C(C)C)C[C@@]23C)[C@@H]1Cc1c(OC)oc(CO)c(C)c1=O	2.105
C=C1CCC2C(C)(CCC=C(C)C)C(O)CCC2(C)C1Cc1c(OC)oc(CO)c(C(=O)OC)c1=O (centres unmarked)	0.4691
C=C1CCC2C(C)(CCC=C(C)C)C(O)CCC2(C)C1Cc1c(OC)oc(CO)c(C)c1=O (centres unmarked)	1.469

====

- Target System: Aβ42 (Homo sapiens, UniProt P05067)
- Sequence (P05067 672-713): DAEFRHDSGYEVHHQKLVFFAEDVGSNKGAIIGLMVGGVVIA
- Procedure Details: Th-T (thioflavin-T) assay of Aβ42 aggregation
- Assay type: biochemical
- Cond: concentration 20, unit not given; time-course reading M131
Observed Property: Th-T fluorescence of Aβ42 with compound, mean of three wells (Fig. 7a source data)

Compound	Endpoint Value
C=C1CCC2C(C)(CCC=C(C)C)C(O)CCC2(C)C1Cc1c(OC)oc(C)c(C(=O)OC)c1=O (centres unmarked) [Compound 14]	1.618
C=C1CC[C@@H]2[C@](C)(CC[C@H]3O[C@H](C=C(C)C)C[C@@]23C)[C@@H]1Cc1c(OC)oc(CO)c(C)c1=O [Compound 20]	3.098
C=C1CCC2C(C)(CCC=C(C)C)C(O)CCC2(C)C1Cc1c(OC)oc(CO)c(C)c1=O (centres unmarked) [Compound 12]	2.201
C=C1CCC2C(C)(CCC=C(C)C)C(O)CCC2(C)C1Cc1c(OC)oc(CO)c(C(=O)OC)c1=O (centres unmarked) [Compound 13]	1.024
C=C1CC[C@@H]2[C@](C)(CC[C@H]3O[C@H](C=C(C)C)C[C@@]23C)[C@@H]1Cc1c(OC)oc(CO)c(C(=O)OC)c1=O [Compound 21]	0.9524

====

Documented viability at 0.04 µM across a set of molecules
- Procedure Details: cytotoxicity in Drosophila DL1 cells
- Type: cell-based
- Cond: Drosophila, DL1 cells (embryonic macrophage-derived), DL1 cells, 0.04 µM, replicate 1, relative to DMSO 1%; read-out: % viability, viability 1
Observed Property: viability at 0.04 µM (%)

Molecule	Display Unit	Endpoint Value
C=C1CC[C@@H]2[C@](C)(CC[C@H]3O[C@H](C=C(C)C)C[C@@]23C)[C@@H]1Cc1c(O)c(C)c(C)oc1=O [Compound 10, higginsianin A]	%	82.7
C=C1CCC2C(C)(CC(=O)C=C(C)C)C(O)CCC2(C)C1Cc1c(OC)oc(CO)c(C)c1=O (stereo not drawn) [Compound 19]	%	92.6
C=C1CC[C@H]2[C@]3(C)C[C@H](C=C(C)C)O[C@H]3CC[C@]2(C)[C@@H]1Cc1c(OC)oc(C)c(C)c1=O [Compound 24]	%	122
C=C1CC[C@H]2[C@]3(C)C[C@H](C=C(C)C)O[C@H]3CC[C@]2(C)[C@@H]1Cc1c(OC)oc(CO)c(C)c1=O [Compound 18]	%	95.6
C=C1CCC2C(C)(CCC=C(C)C)C(O)CCC2(C)C1Cc1c(OC)oc(CO)c(C)c1=O (stereo not drawn) [Compound 12]	%	96.8
C=C1CC[C@@H]2[C@](C)(CC[C@H]3O[C@H](C=C(C)C)C[C@@]23C)[C@@H]1Cc1c(OC)oc(CO)c(C)c1=O [Compound 20]	%	191

====

- Target System: Aβ42 (Homo sapiens)
- Procedure Details: Th-T (thioflavin-T) assay of Aβ42 aggregation
- Type: biochemical
- Cond: reading M128; compound at 20 (head suffix _20)
Observed Property: Th-T fluorescence, mean of three wells (Fig. 7a)

Molecule	Target System	Endpoint Value
C=C1CC[C@@H]2[C@](C)(CC[C@H]3O[C@H](C=C(C)C)C[C@@]23C)[C@@H]1Cc1c(OC)oc(CO)c(C)c1=O [Compound 20]	Aβ42 (Homo sapiens)	3.11
C=C1CCC2C(C)(CCC=C(C)C)C(O)CCC2(C)C1Cc1c(OC)oc(CO)c(C)c1=O (centres unmarked) [Compound 12]	Aβ42 (Homo sapiens)	2.151
C=C1CC[C@@H]2[C@](C)(CC[C@H]3O[C@H](C=C(C)C)C[C@@]23C)[C@@H]1Cc1c(OC)oc(CO)c(C(=O)OC)c1=O [Compound 21]	Aβ42 (Homo sapiens)	0.9486
C=C1CCC2C(C)(CCC=C(C)C)C(O)CCC2(C)C1Cc1c(OC)oc(C)c(C(=O)OC)c1=O (centres unmarked) [Compound 14]	Aβ42 (Homo sapiens)	1.631
C=C1CCC2C(C)(CCC=C(C)C)C(O)CCC2(C)C1Cc1c(OC)oc(CO)c(C(=O)OC)c1=O (centres unmarked) [Compound 13]	Aβ42 (Homo sapiens)	1.029

====

- Target System: Aβ42 (Homo sapiens, UniProt P05067)
- Procedure Details: Th-T (thioflavin-T) assay of Aβ42 aggregation
- Format: biochemical
- Cond: reading M29; Supplementary Fig. 47 source data

Molecule	Th-T fluorescence, mean of three wells
C=C1CCC2C(C)(CC(=O)C=C(C)C)C(O)CCC2(C)C1Cc1c(OC)oc(CO)c(C)c1=O (stereo not drawn) [Compound 19]	3.171
C=C1CC[C@H]2[C@]3(C)C[C@H](C=C(C)C)O[C@H]3CC[C@]2(C)[C@@H]1Cc1c(OC)oc(CO)c(C)c1=O [Compound 18]	3.697
C=C1CCC2C(C)(CCC=C(C)C)C(=O)CCC2(C)C1Cc1c(O)c(C)c(C)oc1=O (stereo not drawn) [Compound 8]	2.048
C=C1CC[C@@H]2[C@](C)(CC[C@H]3O[C@H](C=C(C)C)C[C@@]23C)[C@@H]1Cc1c(O)c(C)c(C)oc1=O [Compound 10, higginsianin A]	2.914
CC(C)=CCC/C(C)=C/CC/C(C)=C/CC/C(C)=C/Cc1c(O)c(C)c(C)oc1=O [Compound 2]	2.665
C=C1CCC2C(C)(CC(=O)C=C(C)C)C(O)CCC2(C)C1Cc1c(O)c(C)c(C)oc1=O (stereo not drawn) [Compound 7]	3.378
C=C1CC[C@H]2[C@]3(C)C[C@H](C=C(C)C)O[C@H]3CC[C@]2(C)[C@@H]1Cc1c(O)c(C)c(C)oc1=O [Compound 6, subglutinol B]	2.861
C=C1CCC2C(C)(CC(=O)C=C(C)C)C(O)CCC2(C)C1Cc1c(OC)oc(C)c(C)c1=O (stereo not drawn) [Compound 25]	3.591
C=C1CC[C@H]2[C@]3(C)C[C@H](C=C(C)C)O[C@H]3CC[C@]2(C)[C@@H]1Cc1c(OC)oc(C)c(C)c1=O [Compound 24]	4.002
C=C1CC[C@H]2[C@]3(C)C[C@@H](C=C(C)C)O[C@H]3CC[C@]2(C)[C@@H]1Cc1c(OC)oc(CO)c(C)c1=O [Compound 17]	2.914
C=C1CC[C@H]2[C@]3(C)C[C@@H](C=C(C)C)O[C@H]3CC[C@]2(C)[C@@H]1Cc1c(O)c(C)c(C)oc1=O [Compound 5, subglutinol A]	2.478
C=C1CCC2C3(C)CC(C=C(C)C)OC3CCC2(C)C1Cc1c(OC)oc(C)c(C)c1=O (stereo not drawn) [Compound 23]	3.755

====

# maps each entry to its Th-T fluorescence, mean of three wells
- Target System: Aβ42 (Homo sapiens)
- Procedure Details: Th-T (thioflavin-T) assay of Aβ42 aggregation
- Format: biochemical
- Cond: Aβ42 aggregation time course, reading M133

Compound	Th-T fluorescence, mean of three wells
C=C1CCC2C(C)(CCC=C(C)C)C(=O)CCC2(C)C1Cc1c(O)c(C)c(C)oc1=O (stereo not drawn)	2.1957
C=C1CCC2C(C)(CC(=O)C=C(C)C)C(O)CCC2(C)C1Cc1c(O)c(C)c(C)oc1=O (stereo not drawn)	3.459
C=C1CCC2C(C)(CCC=C(C)C)C(O)CCC2(C)C1Cc1c(OC)oc(C)c(C)c1=O (stereo not drawn) [Compound 11]	3.349
C=C1CCC2C(C)(CCC=C(C)C)C(O)CCC2(C)C1Cc1c(O)c(C)c(C)oc1=O (stereo not drawn) [Compound 4]	2.76
C=C1CC[C@H]2[C@]3(C)C[C@H](C=C(C)C)O[C@H]3CC[C@]2(C)[C@@H]1Cc1c(O)c(C)c(C)oc1=O	3.061
C=C1CC[C@H]2[C@]3(C)C[C@H](C=C(C)C)O[C@H]3CC[C@]2(C)[C@@H]1Cc1c(OC)oc(C)c(C)c1=O	3.8524
C=C1CC[C@H]2[C@]3(C)C[C@@H](C=C(C)C)O[C@H]3CC[C@]2(C)[C@@H]1Cc1c(OC)oc(CO)c(C)c1=O	3.612
C=C1CCC2C(C)(CCC=C(C)C)C(O)CCC2(C)C1Cc1c(O)c(C)c(C)oc1=O (stereo not drawn) [Compound 9, higginsianin B]	2.787
CC(C)=CCC/C(C)=C/CC/C(C)=C/CC/C(C)=C/Cc1c(O)c(C)c(C)oc1=O	2.945
